# assay_system: Recombinant ROCK1 (amino acids 1-477) (Homo sapiens, UniProt Q13464)
# Construct: Recombinant ROCK1 (amino acids 1-477)
# Sequence (Q13464 1-477): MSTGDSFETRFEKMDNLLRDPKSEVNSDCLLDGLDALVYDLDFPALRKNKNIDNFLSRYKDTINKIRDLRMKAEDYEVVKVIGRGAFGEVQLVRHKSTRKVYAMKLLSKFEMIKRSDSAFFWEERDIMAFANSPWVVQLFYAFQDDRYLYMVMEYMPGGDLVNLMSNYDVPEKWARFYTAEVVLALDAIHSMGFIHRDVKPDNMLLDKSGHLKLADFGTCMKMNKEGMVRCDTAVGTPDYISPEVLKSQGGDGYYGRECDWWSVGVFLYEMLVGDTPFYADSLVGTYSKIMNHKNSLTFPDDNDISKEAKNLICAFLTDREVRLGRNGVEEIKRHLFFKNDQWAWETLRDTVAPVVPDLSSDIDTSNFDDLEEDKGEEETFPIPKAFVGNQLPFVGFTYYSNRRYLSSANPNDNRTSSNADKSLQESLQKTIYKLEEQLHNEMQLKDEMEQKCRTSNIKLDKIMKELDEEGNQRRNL
# assay_text: ROCK inhibition assay, LANCE Ultra TR-FRET (ROCK1)
# assay_context: 1 mM of ATP
This section presents molecules with their documented IC50 values.

Recorded IC50, per entry:
COc1[nH]ncc1-c1ccc2c(C(=O)[C@@H]3COc4ccc(Cl)cc4C3)cn(CCN(C)C)c2c1 ... 201 to 500 nM
COc1ccc2c(c1)C[C@H](C(=O)c1cn(CCN(CCF)CCF)c3cc(-c4c[nH]nc4Cl)ccc13)CO2 ... > 501 nM
CN(C)CCn1nc(C(=O)C2CCOc3ccc(F)cc3C2)c2ccc(-c3c[nH]nc3Cl)cc21 (stereo not drawn) ... > 501 nM
CCN(CCn1cc(C(=O)[C@@H]2COc3ccc(OC)cc3C2)c2ccc(-c3c[nH]nc3Cl)cc21)CC(F)(F)F ... > 501 nM
COc1ccc2c(c1)C[C@H](C(=O)c1cn(C[C@H]3CCN3C)c3cc(-c4cn[nH]c4Cl)ccc13)CO2 ... > 501 nM

Quick check: IC50 of `CCN(CC)CCn1cc(C(=O)[C@@H]2COc3ccc(Cl)cc3C2)c2ccc(-c3cn[nH]c3OC)cc21` ?
> 501 nM

Please give the measured IC50 for this molecule: CN(C)CCn1cc(C(=O)C2COc3ccc(Cl)cc3C2)c2cnc(-c3c[nH]nc3Cl)cc21 (stereo not drawn)
> 501 nM

Which IC50 is listed for COc1[nH]ncc1-c1ccc2c(C(=O)C3COc4ccc(Cl)cc4C3)cn(C[C@@H]3CCCN3C)c2c1 (stereo partly drawn) ?
201 to 500 nM

What value of IC50 has been reported for the following molecule? CCN(C)CCn1cc(C(=O)C2COc3ccc(OC)cc3C2)c2ccc(-c3cn[nH]c3F)cc21 (stereo not drawn)
201 to 500 nM

Using the record for CN(C)CCn1nc(C(=O)C2COc3ccc(Cl)cc3O2)c2ccc(-c3c[nH]nc3F)cc21 (stereo not drawn) , report its IC50.
> 501 nM

Name the reported IC50 value associated with the molecule `C[C@H](Cn1cc(C(=O)[C@@H]2COc3ccc(Cl)cc3C2)c2ccc(-c3cn[nH]c3F)cc21)N(C)C`
201 to 500 nM

What value of measured IC50 is listed for COc1ccc2c(c1)CC(C(=O)c1cn(C[C@@H]3CCN3C)c3cc(-c4cn[nH]c4Cl)ccc13)CO2 (stereo partly drawn) ?
> 501 nM

Any idea what its IC50 is? The molecule is CN(C)CCn1cc(C(=O)C2COc3ccc(F)cc3C2)c2cnc(-c3c[nH]nc3Cl)cc21 (stereo not drawn)
> 501 nM

Find the recorded IC50 belonging to COc1n[nH]cc1-c1ccc2c(C(=O)C3COc4ccc(F)cc4C3)cn(CCCN(C)C)c2c1 (stereo not drawn) and report it.
> 501 nM

Can you share its IC50? I mean this molecule: COc1ccc2c(c1)CC(C(=O)c1nn(CCN(C)C)c3cc(-c4c[nH]nc4OC)ccc13)CCO2 (stereo not drawn)
> 501 nM

###

# assay_system: Recombinant ROCK1 (amino acids 1-477) (Homo sapiens)
# Construct: Recombinant ROCK1 (amino acids 1-477)
# assay_text: ROCK inhibition assay, LANCE Ultra TR-FRET (ROCK1)
# assay_context: 1 mM of ATP
Counter-ions that a name gives are not always drawn.
# IC50 per entry

A selection of reference data follows.
CCN(CCn1cc(C(=O)[C@@H]2COc3ccc(OC)cc3C2)c2ccc(-c3c[nH]nc3Cl)cc21)CC(F)F ... 201 to 500 nM
COc1ccc2c(c1)C[C@H](C(=O)c1cn(C[C@H]3CCN3CC(F)F)c3cc(-c4c[nH]nc4Cl)ccc13)CO2 ... 201 to 500 nM
CN(C)CCn1cc(C(=O)C2COc3ccc(Cl)cc3C2)c2ccc(-c3c[nH]nc3Cl)cc21 (centres unmarked) ... > 501 nM

I would be grateful if you could share the reported IC50 for COc1[nH]ncc1-c1ccc2c(C(=O)C3COc4ccc(Cl)cc4C3)cn(CC3(N)CC3)c2c1 (centres unmarked) .
< 20 nM

Which IC50 value is on record for NCCn1cc(C(=O)C2COc3ccc(F)cc3C2)c2ccc(-c3c[nH]nc3Cl)cc21 (centres unmarked) ?
< 20 nM

What IC50 value was documented for this compound, CCN(C)CCn1cc(C(=O)C2COc3ccc(Cl)cc3C2)c2ccc(-c3cn[nH]c3OC)cc21 (centres unmarked) ?
> 501 nM

Please give the measured IC50 for this compound: COc1[nH]ncc1-c1ccc2c(C(=O)C3COc4ccc(Cl)cc4C3)cn(C[C@@H](C)N(C)C)c2c1 (some centres unmarked)
201 to 500 nM

Request the reported IC50 associated with C[C@@H](Cn1cc(C(=O)C2COc3ccc(Cl)cc3C2)c2ccc(-c3cn[nH]c3Cl)cc21)N(C)C (some centres unmarked)
> 501 nM

Give its IC50 value. Item: CCN(CC)CCn1cc(C(=O)[C@@H]2COc3ccc(OC)cc3C2)c2ccc(-c3cn[nH]c3Cl)cc21 [Compound 3-21]
201 to 500 nM

What measured IC50 goes with COc1[nH]ncc1-c1cc2c(cn1)c(C(=O)C1COc3ccc(Cl)cc3C1)cn2CCN(C)C (centres unmarked) [Compound 1-2, dihydrochloride] ?
> 501 nM

# input compound: CCN(C)CCn1cc(C(=O)C2COc3ccc(OC)cc3C2)c2ccc(-c3cn[nH]c3Cl)cc21 (centres unmarked) ; wanted: its IC50
201 to 500 nM

I would be grateful if you could share the reported IC50 for COc1[nH]ncc1-c1ccc2c(C(=O)C3COc4ccc(Cl)cc4O3)cn(CCN(C)C)c2c1 (centres unmarked) .
> 501 nM

Entry COc1n[nH]cc1-c1ccc2c(C(=O)C3COc4ccc(Cl)cc4O3)nn(CCN(C)C)c2c1 (centres unmarked) has what IC50?
> 501 nM

GET /values?readout=IC50&item= CNCCn1cc(C(=O)C2COc3ccc(OC)cc3C2)c2ccc(-c3cn[nH]c3F)cc21 (centres unmarked)
> 501 nM

Find the recorded IC50 belonging to COc1[nH]ncc1-c1ccc2c(C(=O)[C@@H]3COc4ccc(F)cc4C3)cn(CCN(C)C)c2c1 [Compound 5-38] and report it.
> 501 nM

Item CNCCn1cc(C(=O)C2COc3ccc(F)cc3C2)c2ccc(-c3c[nH]nc3Cl)nc21 (centres unmarked) has what recorded IC50?
> 501 nM

Consider the compound O=C(c1cn(CC2CCN2)c2cc(-c3cn[nH]c3Cl)ccc12)C1COc2ccc(Cl)cc2C1 (centres unmarked) and give its measured IC50.
> 501 nM

Look up IC50: CN(C)CCn1cc(C(=O)C2COc3ccc(Cl)cc3C2)c2ccc(-c3c[nH]nc3Cl)nc21 (centres unmarked)
201 to 500 nM

Would you kindly share the measured IC50 for COc1ccc2c(c1)CC(C(=O)c1cn(C[C@@H]3CCN3C)c3cc(-c4cn[nH]c4OC)ccc13)CO2 (some centres unmarked) ?
> 501 nM

Which measured IC50 value corresponds to NC1(Cn2cc(C(=O)C3COc4ccc(Cl)cc4C3)c3ccc(-c4cn[nH]c4F)cc32)CC1 (centres unmarked) ?
< 20 nM

Suppose we examine the compound CCN(CC)CCn1cc(C(=O)C2COc3ccc(OC)cc3C2)c2ccc(-c3cn[nH]c3F)cc21 (centres unmarked) ; what IC50 value has been reported?
201 to 500 nM

Could you tell me which IC50 is on file for `CN(C)CCn1cc(C(=O)[C@@H]2COc3ccc(Cl)cc3C2)c2ccc(-c3cn[nH]c3Cl)cc21` ?
201 to 500 nM
